System: LG0567-F671-PDC complex spheroids viability
Assay: Anticancer human tumor LG0567-F671-PDC patient-derived lung adenocarcinoma cell line growth inhibition [RAS]; active = viability on the fitted dose curve at most 10% of control; inactive = the rest
Details: second compound 0.316 µM; first compound 3.16 µM
Would you mind answering with one of these outcomes? active, inactive

Worked set:
[
  {
    "Molecule": "CC1(O)CCCC1n1c(=O)c(C(F)F)cc2cnc(NC3CCN(S(C)(=O)=O)CC3)nc21 (stereo not drawn) + C#Cc1c(F)ccc2cc(O)cc(-c3ncc4c(N5CC6CCC(C5)N6)nc(OCC56CCCN5CC(F)C6)nc4c3F)c12",
    "Answer label": "inactive"
  },
  {
    "Molecule": "C[C@@H](NC(=O)c1ncnc(N)c1Cl)c1ncc(C(=O)Nc2cc(C(F)(F)F)c(Cl)cn2)s1 + C#Cc1c(F)ccc2cc(O)cc(-c3ncc4c(N5CC6CCC(C5)N6)nc(OCC56CCCN5CC(F)C6)nc4c3F)c12",
    "Answer label": "inactive"
  },
  {
    "Molecule": "NC1c2ccccc2OC12CCN(c1cnc3c(N4CCCc5ncccc54)n[nH]c3n1)CC2 (stereo not drawn) + C=CC(=O)N1CCN(c2nc(OCC3CCCN3C)nc3c(F)c(-c4nc(N)cc(C)c4C(F)(F)F)c(Cl)cc23)C(C)C1",
    "Answer label": "active"
  },
  {
    "Molecule": "Cc1nc(N2CCC3(CC2)COC(C)C3N)c(CO)nc1Sc1ccnc(N)c1Cl (stereo not drawn) + C=CC(=O)N1CCN(c2nc(OCC3CCCN3C)nc3c(F)c(-c4nc(N)cc(C)c4C(F)(F)F)c(Cl)cc23)C(C)C1",
    "Answer label": "active"
  },
  {
    "Molecule": "CC(=O)OC12COC1CC(O)C1(C)C(=O)C(O)C3=C(C)C(OC(=O)C(O)C(NC(=O)OC(C)(C)C)c4ccccc4)CC(O)(C(OC(=O)c4ccccc4)C21)C3(C)C (stereo not drawn) + C=CC(=O)N1CCN(c2nc(OCC3CCCN3C)nc3c(F)c(-c4nc(N)cc(C)c4C(F)(F)F)c(Cl)cc23)C(C)C1",
    "Answer label": "inactive"
  }
]

Hi team, can someone confirm the assay call for CC(=O)OC12COC1CC(O)C1(C)C(=O)C(O)C3=C(C)C(OC(=O)C(O)C(NC(=O)OC(C)(C)C)c4ccccc4)CC(O)(C(OC(=O)c4ccccc4)C21)C3(C)C (stereo not drawn) + C#Cc1c(F)ccc2cc(O)cc(-c3ncc4c(N5CC6CCC(C5)N6)nc(OCC56CCCN5CC(F)C6)nc4c3F)c12 ?
inactive

Try this molecule too: CC(C)NCC(C(=O)N1CCN(c2ncnc3c2C(C)CC3O)CC1)c1ccc(Cl)cc1 (stereo not drawn) + C#Cc1c(F)ccc2cc(O)cc(-c3ncc4c(N5CC6CCC(C5)N6)nc(OCC56CCCN5CC(F)C6)nc4c3F)c12
inactive

Now give it for CCC(CC)c1cc(NC2CCC(N)C2)n2nccc2n1 (stereo not drawn) + C=CC(=O)N1CCN(c2nc(OCC3CCCN3C)nc3c(F)c(-c4nc(N)cc(C)c4C(F)(F)F)c(Cl)cc23)C(C)C1 too.
active

* * *

Test system: LG0567-F671-PDC complex spheroids viability
Assay: Anticancer human tumor LG0567-F671-PDC cell line growth inhibition [RAS];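 note: spheroids exposed to compound for seven days before readout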
Conditions: second compound 1 µM; first compound 0.0949 µM; active compounds read low
Excerpt: RAS pathway inhibitors in Combinations in Complex Spheroids A high-throughput screen of multi-cell type tumor spheroids was designed to identify active combinations of RAS pathway inhibitors and targeted small molecules. Complex spheroids include a stromal component modeled by human endothelial cells (HUVEC) and fibroblasts modeled by human mesenchymal stem cells (MSCs). […] Compounds. […] If the clinical Cmax for an agent had not been determined, the highest concentration tested was 10 microM. […]
Measurement kind: viability, T/C (%)
Answers are plain numbers, in %.

These solved cases illustrate the format of a correct answer.
[
  {
    "Molecule": "CCc1c2c(nc3ccc(O)cc13)-c1cc3c(c(=O)n1C2)COC(=O)[C@]3(O)CC + C#Cc1c(F)ccc2cc(O)cc(-c3ncc4c(N5CC6CCC(C5)N6)nc(OCC56CCCN5CC(F)C6)nc4c3F)c12",
    "viability, T/C / %": 13.9
  },
  {
    "Molecule": "CC1(C)CCC(Nc2ncc(C(F)(F)F)c(-c3c[nH]c4c(P(C)(C)=O)c(C#N)ccc34)n2)CN1 (centres undefined) + C#Cc1c(F)ccc2cc(O)cc(-c3ncc4c(N5CC6CCC(C5)N6)nc(OCC56CCCN5CC(F)C6)nc4c3F)c12",
    "viability, T/C / %": 23
  },
  {
    "Molecule": "CC1(C)CCC(Nc2ncc(C(F)(F)F)c(-c3c[nH]c4c(P(C)(C)=O)c(C#N)ccc34)n2)CN1 (centres undefined) + C=CC(=O)N1CCN(c2nc(OCC3CCCN3C)nc3c(F)c(-c4nc(N)cc(C)c4C(F)(F)F)c(Cl)cc23)C(C)C1",
    "viability, T/C / %": 12.4
  }
]

Pending molecule:
Please look up its viability, T/C: CCc1c2c(nc3ccc(O)cc13)-c1cc3c(c(=O)n1C2)COC(=O)[C@]3(O)CC + C=CC(=O)N1CCN(c2nc(OCC3CCCN3C)nc3c(F)c(-c4nc(N)cc(C)c4C(F)(F)F)c(Cl)cc23)C(C)C1
8.33
